- Tested on: F culmorum
- Experimental Protocol: Specific antifungal activity of Rs-AFP2 isoforms in SMF− and SMF+ media
- Type: cell-based
- Stated Conditions: medium SMF+; Rs-AFP2 set at 100
Measure: relative specific antifungal activity (1/IC50), FIG. 6, in words

Substance: yRs-AFP2/Q5M: yeast-expressed Rs-AFP2 isoform, position 5 glutamine to methionine (QKLCMRPSGTWSGVCGNNNACKNQCIRLEKARHGSCNYVFPAHKCICYFPC; listed as Raphanus sativus)
Test Result: enhanced activity

Substance: yRs-AFP2/G9R: yeast-expressed Rs-AFP2 isoform, position 9 glycine to arginine (QKLCQRPSRTWSGVCGNNNACKNQCIRLEKARHGSCNYVFPAHKCICYFPC; listed as Raphanus sativus)
Test Result: particularly active

Substance: yRs-AFP2/V39R: yeast-expressed Rs-AFP2 isoform, position 39 valine to arginine (QKLCQRPSGTWSGVCGNNNACKNQCIRLEKARHGSCNYRFPAHKCICYFPC; listed as Raphanus sativus)
Test Result: particularly active

Substance: yRs-AFP2/G16M (QKLCQRPSGTWSGVCMNNNACKNQCIRLEKARHGSCNYVFPAHKCICYFPC; listed as Raphanus sativus)
Test Result: enhanced activity
